Origin of the recorded values: patent US12642270B2

- ASSAY EXPLANATION: Log P by HPLC on reversed phase columns (EEC directive 79/831 Annex V.A8)
- Format: physicochemical
- RECORDED CONDITIONS: method [a]
ASSAY READOUT: LogP

Known results for compounds:
O=C(NC1(C(=O)OCC2CC2)CCC1)c1sc(Br)c(Br)c1Cl; 4.81^[a]
CCOC(=O)C(CC(C)C)NC(=O)c1sc(Br)c(Cl)c1Cl (stereo not shown); 5.16^[a]
CCOC(=O)C1(NC(=O)c2sc(Cl)c(Br)c2F)CC1; 3.10^[a]
O=C(NC1(C(=O)OC2CCC2)CC1)c1sc(Cl)c(Br)c1F; 3.69^[a]
CNC(=S)SC[C@H](NC(=O)c1sc(Br)c(Br)c1Cl)C(=O)OC; 3.54^[a]
COC(=O)CNC(=O)c1cc(Cl)c(Br)s1; 2.23^[a]
CC(C)OC(=O)C(NC(=O)c1sc(Br)c(Br)c1Cl)C1CC1 (stereo not shown); 4.89^[a]
Cc1c(C(=O)NC2(C(=O)O)CC2)sc(Br)c1Cl; 2.20^[a]

INPUT: I am curious: what LogP value has been reported for `COC(=O)C1(NC(=O)c2sc(C#N)c(Br)c2Cl)CCC1` ?
OUTPUT: 2.98^[a]

INPUT: Param item: `COC(=O)[C@H](Cc1ccccc1)NC(=O)c1sc(Br)c(Br)c1F`
OUTPUT: 4.12^[a]

* * *

- ASSAY EXPLANATION: Log P by HPLC on reversed phase columns (EEC directive 79/831 Annex V.A8)
- Assay type: physicochemical
- RECORDED CONDITIONS: reversed phase HPLC columns, method [a]: LC-UV, acidic range, 0.1% formic acid in water and acetonitrile
Decision: chromatographic logP compared against 3; not below it gives TRUE, below it gives FALSE.

Use the examples below as a reference point.
N#Cc1c(C(=O)O)sc(Cl)c1Cl [II.103]; FALSE
Cc1c(C(=O)O)sc(C#N)c1Br [II.042]; FALSE

INPUT: Check this molecule for chromatographic logP at or above 3: CCOC(=O)c1sc(Cl)c(Cl)c1C#N [II.053]
OUTPUT: TRUE

INPUT: Now give it for COC(=O)c1cc(Cl)c(C#N)s1 [II.046] too.
OUTPUT: FALSE

INPUT: Same thing, different molecule: COC(=O)c1sc(Br)c(Br)c1C(F)F [II.055]
OUTPUT: TRUE

* * *

- ASSAY EXPLANATION: Log P by HPLC on reversed phase columns (EEC directive 79/831 Annex V.A8)
- Format: physicochemical
- RECORDED CONDITIONS: method marked [a]
- Description: In the above tables, measurement of Log P values was performed according to EEC directive 79/831 Annex V.A8 by HPLC (High Performance Liquid Chromatography) on reversed phase columns with the following methods: • ^[a] […] Lambda-max-values were determined using UV-spectra from 200 nm to 400 nm and the peak values of the chromatographic signals.
Some molecules, each annotated with its measured LogP.

Would you please look over these solved cases?
COC(=O)C(C)(C)NC(=O)c1sc(Cl)c(Cl)c1C#N [1.0684]; 2.73^[a]
CCOC(=O)C(CCSC)NC(=O)c1cc(Cl)c(C#N)s1 (stereo not shown) [1.0390]; 3.03^[a]

INPUT: Give the measured LogP of CCOC(=O)CN(OC)C(=O)c1sc(C#N)c(Br)c1C [1.0749] .
OUTPUT: 3.23^[a]

INPUT: Next molecule: COC(=O)[C@H](CCSC)NC(=O)c1sc(Br)c(Cl)c1C [1.0768]
OUTPUT: 3.60^[a]

INPUT: Would you kindly repeat that for CCOC(=O)CN(OC)C(=O)c1sc(Cl)c(Cl)c1Br [1.0790] ?
OUTPUT: 3.71^[a]

INPUT: Then what about the molecule CCOC(=O)C(Cc1ccccc1)NC(=O)c1cc(Br)c(F)s1 (stereo not shown) [1.0315] ?
OUTPUT: 3.77^[a]

INPUT: Follow-up entry: COC(=O)C(CCSC)NC(=O)c1sc(Br)c(Cl)c1C (stereo not shown) [1.0759]
OUTPUT: 3.64^[a]

INPUT: Try the molecule CCOC(=O)C(Cc1ccccc1)NC(=O)c1sc(Cl)c(C#N)c1Br (stereo not shown) [1.0660]
OUTPUT: 4.09^[a]

INPUT: Thanks! And COC(=O)CNC(=O)c1cc(C#N)c(Cl)s1 [1.0378] ?
OUTPUT: 1.75^[a]

INPUT: Same thing, different molecule: CCOC(=O)C(CO)NC(=O)c1sc(Br)c(Br)c1Cl (stereo not shown) [1.0779]
OUTPUT: 2.89^[a]

INPUT: Next record, please: Cc1c(C(=O)NC2(C(N)=O)CC2)sc(C#N)c1Br [1.0789]
OUTPUT: 1.61^[a]

* * *

molecules and their reported LogP
- ASSAY EXPLANATION: Log P by HPLC on reversed phase columns (EEC directive 79/831 Annex V.A8)
- Format: physicochemical
- RECORDED CONDITIONS: method marker [a] given with each value; Table 1.1, compounds of formula (I)
- Protocol: In the above tables, measurement of Log P values was performed according to EEC directive 79/831 Annex V.A8 by HPLC (High Performance Liquid Chromatography) on reversed phase columns with the following methods: • ^[a] […] Lambda-max-values were determined using UV-spectra from 200 nm to 400 nm and the peak values of the chromatographic signals.

Completed entries (count: 3):
CCCCOC(=O)CNC(=O)c1sc(C#N)c(Br)c1C; 3.23^[a]
O=C(O)CNC(=S)c1sc(Cl)c(Cl)c1I; 3.13^[a]
O=C(CNC(=O)c1sc(Br)c(Br)c1Cl)OC1CC1; 3.39^[a]

INPUT: Given the entry `Cc1c(C(=O)NCC(=O)OC(C)(C)C)sc(C#N)c1Br` , report its measured LogP.
OUTPUT: 3.14^[a]

INPUT: // same read-out, input: `Cc1c(C(=O)NC2(C#N)CCC2)sc(C#N)c1Br`
OUTPUT: 2.64^[a]

INPUT: // repeat for `CN(C)C(=S)CNC(=O)c1sc(Br)c(Br)c1F` and report
OUTPUT: 3.19^[a]

* * *

- ASSAY EXPLANATION: Log P by HPLC on reversed phase columns (EEC directive 79/831 Annex V.A8)
- Assay type: physicochemical
- RECORDED CONDITIONS: method [a]
# key: entry, value: LogP

# count of solved cases: 5
COC(=O)C(NC(=O)c1sc(Br)c(Cl)c1Cl)C1CC1 (stereo not drawn); 3.87^[a]
CC(C)(C)OC(=O)C(NC(=O)c1sc(Br)c(Br)c1F)C1CC1 (racemic); 4.89^[a]
CCOC(=O)C1(NC(=O)c2sc(C#N)c(Cl)c2Cl)CCC1; 3.35^[a]
CCOC(=O)C(NC(=O)c1sc(Br)c(Br)c1Cl)C(C)C (stereo not drawn); 4.92^[a]
N#CCNC(=O)c1sc(C#N)c(Br)c1Cl; 2.08^[a]

INPUT: Find the recorded LogP belonging to `CNC(=O)C1(NC(=O)c2sc(Cl)c(Cl)c2Br)CC1` and report it.
OUTPUT: 2.28^[a]

INPUT: Would you mind doing CCOC(=O)C(CSC(C)=O)NC(=O)c1sc(Cl)c(Cl)c1Br (stereo not drawn) as well?
OUTPUT: 3.46^[a]

* * *

Measured LogP, listed per entry for reference.
- ASSAY EXPLANATION: Log P by HPLC on reversed phase columns (EEC directive 79/831 Annex V.A8)
- Assay type: physicochemical
- RECORDED CONDITIONS: method [a]

CCCOC(=O)C1(NC(=O)c2cc(Br)c(Cl)s2)CC1; 3.43^[a]

With those in mind, consider the next molecule.
INPUT: Recorded LogP of `CCOC(=O)CNC(=O)c1sc(Cl)c(Br)c1Cl` , please.
OUTPUT: 3.37^[a]

* * *

- ASSAY EXPLANATION: Log P by HPLC on reversed phase columns (EEC directive 79/831 Annex V.A8)
- Type: physicochemical
- RECORDED CONDITIONS: method [a]
ASSAY READOUT: LogP

For orientation, consider the following solved cases.
COC(=O)C(C)(C)NC(=O)c1sc(C#N)c(Cl)c1Cl; 2.90^[a]
COC(=O)CNC(=O)c1sc(Cl)c(Br)c1Br; 2.91^[a]
COC(=O)C1(NC(=S)c2sc(Br)c(Br)c2I)CC1; 3.99^[a]
COC(=O)C1(NC(=O)c2sc(Cl)c(Br)c2Cl)CC1; 3.11^[a]

INPUT: Requested read-out: LogP. Entry: `N#CCNC(=O)c1sc(Cl)c(Br)c1F`
OUTPUT: 2.36^[a]

INPUT: Moving on to the next compound: `COC(=O)[C@H](CSC(=O)N(C)C)NC(=O)c1sc(Br)c(Br)c1F`
OUTPUT: 3.27^[a]
